Organism: Rattus norvegicus
ASSAY_EXPLANATION: DrugMatrix - Regimen: Daily Repeat
Assay type: toxicity, organism-based, Sprague-Dawley
Design: regimen Daily Repeat, gender Male, age 6-8 weeks
EXPERIMENTAL_PARAMETERS: in vivo, po, 0 mg/kg, 72 h, tissue Plasma, route oral GAVAGE, dose level Control, time 3 day, vehicle .5 % CMC
RECORDED_METRIC: LIPASE (u/L)
Form entry: value (u/L) — number only.

Illustrative cases are given below, each with its answer.
Cc1c(-c2ccccc2)oc2c(C(=O)OCCN3CCCCC3)cccc2c1=O [FLAVOXATE]	9
COc1c(C)c2c(c(O)c1C/C=C(\C)CCC(=O)OCCN1CCOCC1)C(=O)OC2 [MYCOPHENOLATE MOFETIL]	10
CC(C)[C@H](N)C(=O)OCCOCn1cnc2c(=O)[nH]c(N)nc21	10.33

Then there is this molecule:
What measured LIPASE goes with O=c1[nH]cc(F)c(=O)[nH]1 ?
8
